tested on: Peptococcus prevoti; assay: standard agar-dilution test, anaerobic bacteria; type: cell-based; details: Peptococcus prevoti; 24-hour incubation; read-out: MIC
Readout kind: MIC (µg/mL)

CC[C@]1(C)C[C@@H](OC(=O)CS[C@@H]2O[C@H](CO)[C@@H](O)[C@H](O)[C@H]2O)[C@]2(C)[C@H](C)CC[C@]3(CCC(=O)[C@H]32)[C@@H](C)[C@@H]1O    2

====

system: Staphylococcus aureus (H-Heatley) NRRL B-314; assay: in vitro turbidometric assay (Autoturb Microbiological Assay System) against Staphylococcus aureus; assay type: cell-based; details: nutrient broth pH 7, approximately 4 hours at 37° C., A-40104 factor A as standard
Readout kind: Units of Activity

C=C[C@]1(C)C[C@@H](OC(=O)CS[C@@H]2OC[C@@H](OC(C)=O)[C@@H](OC(C)=O)[C@@H]2OC(C)=O)[C@]2(C)[C@H](C)CC[C@]3(CCC(=O)[C@H]32)[C@@H](C)[C@@H]1O [Example 20]    430 µg/mg
C=C[C@]1(C)C[C@@H](OC(=O)CS[C@H]2OC[C@@H](O)[C@@H](O)[C@H]2O)[C@]2(C)[C@H](C)CC[C@]3(CCC(=O)[C@H]32)[C@@H](C)[C@@H]1O [Example 37]    350 µg/mg
CC[C@]1(C)C[C@@H](OC(=O)CS[C@@H]2OC[C@@H](OC(C)=O)[C@H](OC(C)=O)[C@H]2OC(C)=O)[C@]2(C)[C@H](C)CC[C@]3(CCC(=O)[C@H]32)[C@@H](C)[C@@H]1O [Compound 6]    746 to 883 µg/mg
C=C[C@]1(C)C[C@@H](OC(=O)CO[C@H]2O[C@H](COC(C)=O)[C@@H](OC(C)=O)[C@H](OC(C)=O)C2=NO)[C@]2(C)[C@H](C)CC[C@]3(CCC(=O)[C@H]32)[C@@H](C)[C@@H]1O [Compound 7]    11 to 12 µg/mg
C=C[C@]1(C)C[C@@H](OC(=O)CS[C@@H]2OC[C@@H](O)[C@@H](O)[C@H]2O)[C@]2(C)[C@H](C)CC[C@]3(CCC(=O)[C@H]32)[C@@H](C)[C@@H]1O [Example 38]    1070 µg/mg
C=C[C@]1(C)C[C@@H](OC(=O)CS[C@@H]2OC[C@@H](OC(C)=O)[C@H](OC(C)=O)[C@H]2OC(C)=O)[C@]2(C)[C@H](C)CC[C@]3(CCC(=O)[C@H]32)[C@@H](C)[C@@H]1O [Compound 1]    568 to 579 µg/mg
CC[C@]1(C)C[C@@H](OC(=O)CS[C@@H]2O[C@H](COC(C)=O)[C@@H](OC(C)=O)[C@H](OC(C)=O)[C@H]2OC(C)=O)[C@]2(C)[C@H](C)CC[C@]3(CCC(=O)[C@H]32)[C@@H](C)[C@@H]1O [Compound 4]    203 to 220 µg/mg
CC[C@]1(C)C[C@@H](OC(=O)CS[C@@H]2OC[C@@H](O)[C@@H](O)[C@H]2O)[C@]2(C)[C@H](C)CC[C@]3(CCC(=O)[C@H]32)[C@@H](C)[C@@H]1O [Example 40]    1500 µg/mg
CC[C@]1(C)C[C@@H](OC(=O)CS[C@@H]2OC[C@@H](O)[C@H](O)[C@H]2O)[C@]2(C)[C@H](C)CC[C@]3(CCC(=O)[C@H]32)[C@@H](C)[C@@H]1O [Compound 3]    1150 to 1243 µg/mg
CC[C@]1(C)C[C@@H](OC(=O)CS[C@H]2OC[C@@H](O)[C@@H](O)[C@H]2O)[C@]2(C)[C@H](C)CC[C@]3(CCC(=O)[C@H]32)[C@@H](C)[C@@H]1O [Example 39]    430 to 433 µg/mg
C=C[C@]1(C)C[C@@H](OC(=O)CS[C@@H]2O[C@H](COC(C)=O)[C@@H](OC(C)=O)[C@H](OC(C)=O)[C@H]2OC(C)=O)[C@]2(C)[C@H](C)CC[C@]3(CCC(=O)[C@H]32)[C@@H](C)[C@@H]1O [Compound 11]    253 to 265 µg/mg
CC[C@]1(C)C[C@@H](OC(=O)CS[C@@H]2OC[C@@H](OC(C)=O)[C@@H](OC(C)=O)[C@H]2OC(C)=O)[C@]2(C)[C@H](C)CC[C@]3(CCC(=O)[C@H]32)[C@@H](C)[C@@H]1O    480 to 500 µg/mg
C=C[C@]1(C)C[C@@H](OC(=O)CO[C@@H]2O[C@H](CO)[C@@H](O)[C@H](O)[C@H]2O)[C@]2(C)[C@H](C)CC[C@]3(CCC(=O)[C@H]32)[C@@H](C)[C@@H]1O [Example 4]    12 to 13 µg/mg
C=C[C@]1(C)C[C@@H](OC(=O)CO[C@@H]2O[C@H](COC(C)=O)[C@@H](OC(C)=O)[C@H](OC(C)=O)[C@H]2OC(C)=O)[C@]2(C)[C@H](C)CC[C@]3(CCC(=O)[C@H]32)[C@@H](C)[C@@H]1O [Example 3]    75 to 85 µg/mg
C=C[C@]1(C)C[C@@H](OC(=O)CS[C@@H]2O[C@H](COC(C)=O)[C@@H](O[C@H]3O[C@H](COC(C)=O)[C@@H](OC(C)=O)[C@H](OC(C)=O)[C@H]3OC(C)=O)[C@H](OC(C)=O)[C@H]2OC(C)=O)[C@]2(C)[C@H](C)CC[C@]3(CCC(=O)[C@H]32)[C@@H](C)[C@@H]1O [Example 52]    40 µg/mg
C=C[C@]1(C)C[C@@H](OC(=O)CO[C@H]2O[C@H](COC(C)=O)[C@H](OC(C)=O)[C@H](OC(C)=O)C2=NO)[C@]2(C)[C@H](C)CC[C@]3(CCC(=O)[C@H]32)[C@@H](C)[C@@H]1O [Compound 9]    53 to 54 µg/mg
C=C[C@]1(C)C[C@@H](OC(=O)CO[C@@H]2OC[C@@H](O)[C@H](O)[C@H]2O)[C@]2(C)[C@H](C)CC[C@]3(CCC(=O)[C@H]32)[C@@H](C)[C@@H]1O [A-40104 factor A, reference compound]    446 to 452 µg/mg
